Each entry below carries its measured IC50, system: CCK receptor (Cavia porcellus).
Sequence (H0VZC5 entry or part of it): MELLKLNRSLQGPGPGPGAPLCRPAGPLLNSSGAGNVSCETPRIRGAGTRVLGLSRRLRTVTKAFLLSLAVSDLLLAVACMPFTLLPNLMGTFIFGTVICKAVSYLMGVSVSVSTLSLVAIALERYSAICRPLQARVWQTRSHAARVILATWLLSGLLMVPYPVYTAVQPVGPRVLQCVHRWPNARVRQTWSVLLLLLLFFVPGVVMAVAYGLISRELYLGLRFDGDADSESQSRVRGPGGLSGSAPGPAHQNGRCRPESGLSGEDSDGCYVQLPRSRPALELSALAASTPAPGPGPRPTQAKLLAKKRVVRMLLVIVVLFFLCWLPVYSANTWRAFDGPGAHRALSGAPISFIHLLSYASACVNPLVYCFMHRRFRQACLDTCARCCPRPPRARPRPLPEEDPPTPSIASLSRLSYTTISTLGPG
Report as a plain number; the unit µM is understood.

Short answer on CCK receptor (Cavia porcellus) for O=C(NC1N=C(c2ccccc2F)c2ccccc2-n2cnnc21)c1cc2ccccc2[nH]1 (stereo not shown) , IC50: 0.053

====

biological target: CCK receptor (Rattus norvegicus); construct: The whole pancreas was dissected free of fat tissue and was homogenized; from tissue; host or cells: rat (Sprague-Dawley) whole pancreas membranes; assay: CCK receptor binding (pancreas), inhibition of 125I-CCK-33 binding; design: species or system rat (Male Sprague-Dawley)
Sequence (P30551 whole entry): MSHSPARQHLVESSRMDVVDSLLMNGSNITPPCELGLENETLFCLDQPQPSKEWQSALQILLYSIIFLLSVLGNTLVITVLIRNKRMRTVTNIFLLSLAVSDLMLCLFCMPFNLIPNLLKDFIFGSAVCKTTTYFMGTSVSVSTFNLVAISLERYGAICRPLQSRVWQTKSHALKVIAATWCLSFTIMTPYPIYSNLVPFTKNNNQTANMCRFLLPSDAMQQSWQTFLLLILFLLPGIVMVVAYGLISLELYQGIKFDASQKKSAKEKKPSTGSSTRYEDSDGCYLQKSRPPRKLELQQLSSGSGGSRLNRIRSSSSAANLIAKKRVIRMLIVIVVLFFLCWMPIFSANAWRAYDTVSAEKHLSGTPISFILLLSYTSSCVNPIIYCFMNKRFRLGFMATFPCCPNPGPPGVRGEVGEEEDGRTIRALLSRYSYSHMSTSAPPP
Value Type: IC50 (µM)
Kindly provide the numeric value in µM only, without the unit symbol.

Given the compound O=c1[nH]nc2n1-c1ccccc1C(c1ccccc1F)=N[C@@H]2Cc1c[nH]c2ccccc12 and test system CCK receptor (Rattus norvegicus), the measured IC50 is 3.1
